B1: ALDH8A1 (parent)
chain: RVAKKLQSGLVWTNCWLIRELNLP

Variants of: B1
Assay: protein stability index of a GFP-peptide fusion (GPS, HEK-293T) (PSI 1-6); higher = more stable;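 further: lentivirally expressed fusions sorted by FACS into six bins by GFP to DsRed ratio, PSI derived from sequencing read proportions per bin multiplied by bin number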
Conditions: c terminus: a fixed tail appended
readout_label: protein stability index

Some solved cases for reference:
{"columns": ["chain_sequence", "protein stability index"],
 "data": [
  ["RNAKKLQSGLVWTNCWLIRELNLP [V2N]", 2.49],
  ["RVAKKLQSGLVWTNCWLIREGNLP [L21G]", 5.81]
]}

Query variant follows.
Looking up RVAKKLQSGLVWTNCWLPRELNLP [I18P] , I see its protein stability index listed as 1.3
